- Tested on: KM12
- assay text: NCI tumour cell line growth inhibition, 48 h
Active and inactive are the calls of the source. Cut-off read from the data, not from the text of the source: active = GI50 up to about 1.1 µM and inactive = higher.
Form entry, call: pick from 1.0 (active), 0.0 (inactive)

Example cases with answers are listed next.
Give the logged outcome of this assay for the following molecule: CC(C)=CCc1c(O)c(CC=C(C)C)c2oc3c(c(=O)c2c1O)C(C=C(C)C)Oc1cc(O)ccc1-3 (centres undefined)
0.0

Give the logged outcome of this assay for the following molecule: CC(=O)N(CCN1C(=O)c2ccccc2C1=O)CCN1C(=O)c2ccccc2C1=O
0.0

Give the logged outcome of this assay for the following molecule: COc1ccc(C2C3=C(COC3=O)Oc3cc4c(cc32)OCO4)cc1OC (centres undefined)
1.0

Give the logged outcome of this assay for the following molecule: O=c1cccccc1NCCCNc1cccccc1=O
0.0

Give the logged outcome of this assay for the following molecule: CC1CCC2(C(=O)O)CCC3(C)C(=CCC4C5(C)CC(O)C(O)C(C)(CO)C5C(O)CC43C)C2C1C (centres undefined)
0.0

Next:
Give the logged outcome of this assay for the following molecule: CC1=C2C(=C[C@H]3[C@]4(C)CCCC(C)(C)[C@H]4CC[C@]34O[C@H]24)OC1=O
0.0

Give the logged outcome of this assay for the following molecule: Fc1ccc(C(OCCN2CCC3CCC(C2)N3C/C=C/c2cccnc2)c2ccc(F)cc2)cc1 (centres undefined)
0.0

Give the logged outcome of this assay for the following molecule: C[C@H](CSC(=O)c1ccccc1)C(=O)N1c2ccccc2C[C@H]1C(=O)O
0.0

Give the logged outcome of this assay for the following molecule: Cc1nnc2sc(N/N=C/c3ccccc3)nn12
0.0

Give the logged outcome of this assay for the following molecule: N#CC1(C#N)[C@@H]2CCC=C(Sc3ccccc3)[C@@H]21
0.0

Give the logged outcome of this assay for the following molecule: O=C(/N=C1/NCC(CN2CCN(c3ccccc3)CC2)O1)Nc1ccccc1 (centres undefined)
0.0

Give the logged outcome of this assay for the following molecule: COc1cc2c[n+]3ccc4cc(OC)c(OC)cc4c3cc2cc1O
0.0

Give the logged outcome of this assay for the following molecule: COc1ccc(/N=N/c2c(-c3c(OC)cc4occc4c3OC)[nH]c(=O)c(C#N)c2C)cc1
0.0

Give the logged outcome of this assay for the following molecule: CN(C)c1ccc(/C=C/C(=O)c2ccccc2)cc1Br
0.0
